- assay.comment: Antiproliferative activity against human HCT116 cells expressing wild type p53 assessed as growth inhibition after 72 hrs by MTT assay
- Format: functional, cell-based
- condition.description: HCT-116, 72 h
Recorded pIC50 by entry
Scale explanation: pIC50 corresponds to minus log10 of a concentration expressed in moles per litre.

// solved cases for pIC50 follow
{"columns": ["substance.smiles", "pIC50"],
 "data": [
  ["CNCCNC(=O)c1oc2ccc(N(Cc3ccc(Cl)cc3)S(=O)(=O)c3ccc(Cl)cc3)cc2c1C", 5.74],
  ["CCOC(=O)c1oc2ccc(NS(=O)(=O)c3ccc(Br)cc3)cc2c1C", 5.03],
  ["CNCCNC(=O)c1oc2ccc(N(Cc3ccccc3)S(=O)(=O)c3ccc(Cl)cc3)cc2c1C", 5.52],
  ["CCOC(=O)c1oc2ccc(N(Cc3ccc(Br)cc3)S(=O)(=O)c3ccc(Br)cc3)cc2c1C", 4.96]
]}

Next item in the queue.
So what does the record say about pIC50 for Cc1c(C(=O)O)oc2ccc(N(Cc3ccccc3)S(=O)(=O)c3ccc(Br)cc3)cc12 ?
5.15

====

- assay.comment: Antiproliferative activity against human HCT116 cells expressing wild type p53 assessed as growth inhibition after 72 hrs by MTT assay
- Type: functional, cell-based
- condition.description: HCT-116, 72 h
pIC50: −log10 of the molar value.
Threshold check on pIC50: at or above 5 gives t, strictly below gives f.

Examples from the recorded data:
{"columns": ["substance.smiles", "classification"],
 "data": [
  ["CCOC(=O)c1oc2ccc(N(Cc3ccccc3)S(=O)(=O)c3cccc(Cl)c3)cc2c1C", "f"],
  ["Cc1c(C(=O)NCCCn2ccnc2)oc2ccc(N(Cc3ccccc3)S(=O)(=O)c3ccc(Cl)cc3)cc12", "f"],
  ["Cc1c(C(=O)NCCN(C)C)oc2ccc(N(Cc3ccccc3)S(=O)(=O)c3ccc(Cl)cc3)cc12", "t"],
  ["CCOC(=O)c1oc2ccc(N(Cc3ccccc3)S(=O)(=O)c3ccc(F)cc3)cc2c1C", "t"],
  ["CCOC(=O)c1oc2ccc(N(Cc3ccccc3)S(=O)(=O)c3ccc(Cl)cc3)cc2c1C", "t"],
  ["CCOC(=O)c1oc2ccc(N(Cc3ccccc3)S(=O)(=O)c3ccccc3Br)cc2c1C", "f"],
  ["Cc1c(C(=O)O)oc2ccc(N(Cc3ccccc3)S(=O)(=O)c3ccc(C(F)(F)F)cc3)cc12", "t"],
  ["CCOC(=O)c1oc2ccc(N(Cc3ccccc3)S(=O)(=O)c3ccccc3)cc2c1C", "f"],
  ["CCOC(=O)c1oc2ccc(N(Cc3ccccc3)S(=O)(=O)c3ccc(C)cc3)cc2c1C", "f"],
  ["CCOC(=O)c1oc2ccc(N(Cc3ccccc3)S(=O)(=O)c3ccc(C(F)(F)F)cc3)cc2c1C", "f"]
]}

Does the reported pIC50 for Cc1c(C(=O)NCCCn2ccnc2)oc2ccc(N(Cc3ccc(Cl)cc3)S(=O)(=O)c3ccc(Cl)cc3)cc12 fall at or above the 5 mark?
t

Does the reported pIC50 for CCOC(=O)c1oc2ccc(N(Cc3ccccc3)S(=O)(=O)c3ccc(OC)cc3)cc2c1C fall at or above the 5 mark?
f

Does the reported pIC50 for CCOC(=O)c1oc2ccc(NS(=O)(=O)c3ccc(Cl)cc3)cc2c1C fall at or above the 5 mark?
f

Does the reported pIC50 for CCOC(=O)c1oc2ccc(N(Cc3ccccc3)S(=O)(=O)c3ccc([N+](=O)[O-])cc3)cc2c1C fall at or above the 5 mark?
f

Does the reported pIC50 for COc1ccc(C2=N[C@@H](c3ccc(Cl)cc3)[C@@H](c3ccc(Cl)cc3)N2C(=O)N2CCNC(=O)C2)c(OC(C)C)c1 fall at or above the 5 mark?
t
